- target.entity: sodium ion channel of Trpm5 bitter receptor (Mus musculus, UniProt Q9JJH7)
- Construct: Put the removed tongue in a 2 ml EP tube, add 1-1.5 ml of 0.25% trypsin solution; from tissue; host or cells: cells dissociated with trypsin from mouse tongue
- Sequence (Q9JJH7 whole entry): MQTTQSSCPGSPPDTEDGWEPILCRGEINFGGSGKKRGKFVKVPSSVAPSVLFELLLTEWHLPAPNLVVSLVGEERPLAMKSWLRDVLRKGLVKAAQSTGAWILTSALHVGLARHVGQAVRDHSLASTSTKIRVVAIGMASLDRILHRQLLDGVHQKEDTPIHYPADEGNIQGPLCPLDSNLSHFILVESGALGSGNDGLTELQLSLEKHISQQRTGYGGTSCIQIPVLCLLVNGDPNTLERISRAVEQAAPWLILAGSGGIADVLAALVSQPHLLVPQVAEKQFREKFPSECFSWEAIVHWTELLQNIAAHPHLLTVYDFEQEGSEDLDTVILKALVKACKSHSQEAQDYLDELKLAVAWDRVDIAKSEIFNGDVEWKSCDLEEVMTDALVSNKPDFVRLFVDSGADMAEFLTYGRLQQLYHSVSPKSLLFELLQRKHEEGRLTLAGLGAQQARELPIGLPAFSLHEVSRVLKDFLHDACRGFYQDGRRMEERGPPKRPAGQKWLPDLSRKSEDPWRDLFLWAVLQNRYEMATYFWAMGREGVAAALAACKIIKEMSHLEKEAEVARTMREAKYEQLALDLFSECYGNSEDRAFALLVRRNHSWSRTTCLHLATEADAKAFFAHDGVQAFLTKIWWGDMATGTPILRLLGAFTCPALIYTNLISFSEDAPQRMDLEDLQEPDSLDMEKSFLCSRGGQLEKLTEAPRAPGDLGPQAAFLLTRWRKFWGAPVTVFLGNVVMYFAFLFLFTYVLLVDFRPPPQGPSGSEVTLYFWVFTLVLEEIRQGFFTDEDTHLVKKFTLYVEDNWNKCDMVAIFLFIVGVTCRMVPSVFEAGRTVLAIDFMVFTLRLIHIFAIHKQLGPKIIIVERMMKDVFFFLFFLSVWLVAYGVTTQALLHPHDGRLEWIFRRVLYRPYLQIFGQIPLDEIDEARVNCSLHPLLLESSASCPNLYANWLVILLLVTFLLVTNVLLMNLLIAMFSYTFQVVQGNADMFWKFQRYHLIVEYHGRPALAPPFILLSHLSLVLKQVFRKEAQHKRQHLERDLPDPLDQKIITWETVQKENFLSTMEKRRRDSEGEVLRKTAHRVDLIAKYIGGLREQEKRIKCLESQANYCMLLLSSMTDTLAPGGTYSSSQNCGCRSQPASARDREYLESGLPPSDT
- assay.explanation: Immunofluorescence experiment of sodium ion channels in mouse tongue cells stimulated with bitter agent
- Format: cell-based, mice
- condition.parameters: Bitterant 180 s (2% metronidazole solution)
measure.name: average value of fluorescence brightness
One number for each entry.

Would you please look over these solved cases?
O=CC=Cc1ccccc1 [Cinnamaldehyde, 3-phenyl-2-propenal]; 30.597
CC(C)[C@@H]1CC[C@@H](C)C[C@H]1OC(=O)CCC(=O)O [Menthyl succinate]; 28.851
CCCCC[C@H](O)CC(=O)CCc1ccc(O)c(OC)c1 [Gingerol, 6-gingerol]; 25.08
CC(C)=CCCC(C)=CC=O [Citral, citral]; 29.647
COc1cc(C(=O)O)ccc1O [Vanillic acid, 3-methoxy-4-hydroxybenzoic acid]; 26.725
CC1CCC(C(C)C)C(=O)C1 (stereo not drawn) [Menthone, 5-methyl-2-isopropylcyclohexanone]; 25.4

Give one value of average value of fluorescence brightness per listed compound.
1. COc1ccc(CCN(C)CCCC(C#N)(c2ccc(OC)c(OC)c2)C(C)C)cc1OC (stereo not drawn) [Verapamil, reference compound]
2. C=CC(C)(O)CCC=C(C)C (stereo not drawn) [Linalool, linalool]
3. CC1CCC(C(C)C)C(OC(=O)C(C)O)C1 (stereo not drawn) [Menthyl lactate]

1. 27.574
2. 27.426
3. 28.191

====

- target.entity: sodium ion channel of Trpm5 bitter receptor (Mus musculus, UniProt Q9JJH7)
- Construct: Put the removed tongue in a 2 ml EP tube, add 1-1.5 ml of 0.25% trypsin solution; from tissue; host or cells: cells dissociated with trypsin from mouse tongue
- assay.explanation: Immunofluorescence experiment of sodium ion channels in mouse tongue cells stimulated with bitter agent
- Assay type: cell-based, mice
- condition.parameters: Initial (before addition of drug); sodium ion dye ENG-2 AM
# binarize average value of fluorescence brightness: threshold 30 inclusive, high side T, low side F

CC1CCC(C(C)C)C(O)C1 (centres unmarked) [Menthol, 2-isopropyl-5-methylcyclohexanol]; F

Could you tell me if the measured average value of fluorescence brightness of CCCCC[C@H](O)CC(=O)CCc1ccc(O)c(OC)c1 [Gingerol, 6-gingerol] reaches 30 or more?
F

Could you tell me if the measured average value of fluorescence brightness of COc1cc(C(=O)O)ccc1O [Vanillic acid, 3-methoxy-4-hydroxybenzoic acid] reaches 30 or more?
F

Could you tell me if the measured average value of fluorescence brightness of C=CC(C)(O)CCC=C(C)C (centres unmarked) [Linalool, linalool] reaches 30 or more?
F

Could you tell me if the measured average value of fluorescence brightness of O=CC=Cc1ccccc1 [Cinnamaldehyde, 3-phenyl-2-propenal] reaches 30 or more?
T

====

- assay.explanation: Oral spray bitterness masking taste test by volunteers with Coptis chinensis standard bitter solution
- Format: in vivo, healthy volunteers
- condition.parameters: 0.2% solution in 60% ethanol as oral spray; retention time until bitterness rises
Field: Duration >. Provide a value for each of the compounds that follow.

Would you please look over these solved cases?
O=CC=Cc1ccccc1; > 50 s
O=S(=O)([O-])[O-].[Mg+2] [Magnesium sulfate]; > 20 s
C=CCc1ccc(OC(C)=O)c(OC)c1 [Eugenol acetate]; > 60 s
C=CC(C)(O)CCC=C(C)C (stereo not drawn); > 30 s
COc1cc(C(=O)O)ccc1O [Vanillic acid, 3-methoxy-4-hydroxybenzoic acid]; > 50 s

Give one value of Duration > per listed compound.
1. O=C(/C=C/C=C/c1ccc2c(c1)OCO2)N1CCCCC1
2. CCCN(CCC)S(=O)(=O)c1ccc(C(=O)O)cc1 [Probenecid, reference compound]
3. CC(C)=CCCC(C)=CC=O
4. CCNC(=O)[C@@H]1C[C@H](C)CC[C@H]1C(C)C [Menthamide, N-ethyl-L-menthyl carboxamide]

["> 30 s", "> 30 s", "> 30 s", "> 120 s"]
